Target: PYL6 (Arabidopsis thaliana, UniProt Q8S8E3)
Construct: 6X-His; made in house; host or cells: E. coli BL21[DE3]pLysS
Sequence (Q8S8E3 1-215): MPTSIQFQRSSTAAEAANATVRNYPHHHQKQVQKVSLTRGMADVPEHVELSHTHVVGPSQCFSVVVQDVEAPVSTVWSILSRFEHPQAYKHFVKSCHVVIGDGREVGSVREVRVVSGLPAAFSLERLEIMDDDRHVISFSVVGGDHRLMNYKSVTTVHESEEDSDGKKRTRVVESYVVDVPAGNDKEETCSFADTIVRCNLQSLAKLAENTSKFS
Sequence (Q9CAJ0 23-511 partner): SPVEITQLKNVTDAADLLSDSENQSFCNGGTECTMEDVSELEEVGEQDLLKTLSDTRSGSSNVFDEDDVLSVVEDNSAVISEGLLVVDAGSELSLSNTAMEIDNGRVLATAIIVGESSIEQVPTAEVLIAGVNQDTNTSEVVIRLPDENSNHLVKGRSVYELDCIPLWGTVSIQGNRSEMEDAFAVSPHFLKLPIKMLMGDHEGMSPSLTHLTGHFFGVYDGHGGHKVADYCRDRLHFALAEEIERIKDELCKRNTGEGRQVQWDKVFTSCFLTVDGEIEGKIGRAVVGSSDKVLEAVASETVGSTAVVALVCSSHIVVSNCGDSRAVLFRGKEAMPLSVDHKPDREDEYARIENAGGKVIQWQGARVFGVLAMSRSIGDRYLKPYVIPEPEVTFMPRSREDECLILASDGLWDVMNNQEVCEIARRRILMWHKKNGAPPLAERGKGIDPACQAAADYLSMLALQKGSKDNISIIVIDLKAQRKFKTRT
Experiment: receptor-mediated PP2C (HAB1) inhibition in vitro assay
Assay type: biochemical
Details: Table XII-B; calculated from dose curves; read-out: PP2C Activity (IC50 in uM) PYL6
endpoint: IC50

Solved cases (5 shown):
N#Cc1ccc(CS(=O)(=O)NC(=O)C2(c3ccsc3)CCCCC2)cc1; 25 µM
N#Cc1ccc(CS(=O)(=O)NC(=O)C(c2ccccc2)c2ccccc2)cc1; > 50 µM
N#Cc1ccc(CS(=O)(=O)NC(=O)C2(c3ccccc3)CCCCC2)cc1; > 50 µM
N#Cc1ccc(CS(=O)(=O)NC(=O)C2(c3cccs3)CCCCC2)cc1; > 50 µM
N#Cc1ccc(CS(=O)(=O)NC(=O)C(C2CCCCC2)C2CCCCC2)cc1; > 50 µM

Could you now consider this next compound?
// fetch IC50 given entry O=C(NS(=O)(=O)Cc1ccc([N+](=O)[O-])cc1)C1(c2ccccc2)CCCCC1
> 50 µM

* * *

Target: PYL9 (Arabidopsis thaliana)
Construct: 6X-His; made in house; host or cells: E. coli BL21[DE3]pLysS
Sequence (Q84MC7 whole entry, one chain of several): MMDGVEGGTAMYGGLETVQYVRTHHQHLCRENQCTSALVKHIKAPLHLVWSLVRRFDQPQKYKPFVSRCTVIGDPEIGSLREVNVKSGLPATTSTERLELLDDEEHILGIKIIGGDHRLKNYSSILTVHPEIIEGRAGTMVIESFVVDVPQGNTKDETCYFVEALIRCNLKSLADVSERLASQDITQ
Experiment: receptor-mediated PP2C (HAB1) inhibition in vitro assay
Format: biochemical
Details: compound at 25 μM; control without agonist = 100%
Recorded PP2C Activity (25 μm) PYL9 split into classes low class (below 70%), middle class (70% to below 90%), high class (90% or more)

Worked cases, answers included:
CCC(CC)(C(=O)NS(=O)(=O)Cc1ccc(C#N)cc1)c1ccc(Cl)cc1 [Compound 10]; middle class
CCOc1ccc(C2(C(=O)NS(=O)(=O)Cc3ccc(C#N)cc3)CC2)cc1 [Compound 52]; high class

Which class does N#Cc1ccc(CS(=O)(=O)NC(=O)C2(c3ccc(C(F)(F)F)cc3)CC2)cc1 [Compound 45] fall in?
low class

Which class does N#Cc1ccc(CS(=O)(=O)NC(=O)C2(c3ccc(Br)cc3)CCC2)cc1 [Compound 31] fall in?
middle class

* * *

// remaining activity at 50 µM lookup, one value per entry
Target: PYL3 (Arabidopsis thaliana)
Construct: 6X-His; made in house; host or cells: E. coli BL21[DE3]pLysS
Sequence (Q9SSM7 whole entry, one chain of several): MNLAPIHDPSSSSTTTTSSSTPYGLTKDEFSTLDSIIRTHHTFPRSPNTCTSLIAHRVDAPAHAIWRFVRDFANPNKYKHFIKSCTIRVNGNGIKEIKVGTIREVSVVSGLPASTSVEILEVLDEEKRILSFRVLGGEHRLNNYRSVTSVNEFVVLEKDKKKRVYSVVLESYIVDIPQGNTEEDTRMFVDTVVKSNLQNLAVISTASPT
Assay: receptor-mediated PP2C (HAB1) inhibition in vitro assay
Format: biochemical
Details: 50 uM of the test compound
# output: bare number, implied unit %

Solved cases (4 shown):
N#Cc1ccc(CS(=O)(=O)NC(=O)C2(c3ccsc3)CCCCC2)cc1Br [Compound 106]; 96.9
N#Cc1ccc(CS(=O)(=O)NC(=O)C(c2ccccc2)c2ccccc2)cc1 [Compound 71]; 102
N#Cc1ccc(CS(=O)(=O)NC(=O)C2(c3ccccc3)CCCCC2)cc1 [Compound 69]; 103
N#Cc1ccc(CS(=O)(=O)NC(=O)C(C2CCCCC2)C2CCCCC2)cc1 [Compound 73]; 92.7

Report remaining activity at 50 µM under test system PYL3 (Arabidopsis thaliana) for O=C(NS(=O)(=O)Cc1ccc([N+](=O)[O-])cc1)C1(c2ccccc2)CCCCC1 [Compound 63] .
127

Report remaining activity at 50 µM under test system PYL3 (Arabidopsis thaliana) for CC1(C)CCC(C(=O)NS(=O)(=O)Cc2ccc(C#N)cc2)(c2ccc(F)cc2)CC1 [Compound 68] .
98.3

Report remaining activity at 50 µM under test system PYL3 (Arabidopsis thaliana) for N#Cc1ccc(CS(=O)(=O)NC(=O)C2(c3ccsc3)CCCCC2)cc1 [Compound 78] .
103

Report remaining activity at 50 µM under test system PYL3 (Arabidopsis thaliana) for O=C(NS(=O)(=O)Cc1ccc(F)cc1)C1(c2ccccc2)CCCCC1 [Compound 64] .
97.4

* * *

// IC50 lookup, one value per entry
Target: PYL6 (Arabidopsis thaliana, UniProt Q8S8E3)
Construct: 6X-His; made in house; host or cells: E. coli BL21[DE3]pLysS
Sequence (Q8S8E3 1-215): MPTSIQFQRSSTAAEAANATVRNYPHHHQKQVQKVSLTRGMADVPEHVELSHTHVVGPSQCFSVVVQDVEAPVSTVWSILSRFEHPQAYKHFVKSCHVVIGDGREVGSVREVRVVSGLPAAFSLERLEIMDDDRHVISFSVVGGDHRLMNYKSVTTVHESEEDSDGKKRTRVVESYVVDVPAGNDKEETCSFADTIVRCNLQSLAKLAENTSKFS
Sequence (Q9CAJ0 23-511 partner): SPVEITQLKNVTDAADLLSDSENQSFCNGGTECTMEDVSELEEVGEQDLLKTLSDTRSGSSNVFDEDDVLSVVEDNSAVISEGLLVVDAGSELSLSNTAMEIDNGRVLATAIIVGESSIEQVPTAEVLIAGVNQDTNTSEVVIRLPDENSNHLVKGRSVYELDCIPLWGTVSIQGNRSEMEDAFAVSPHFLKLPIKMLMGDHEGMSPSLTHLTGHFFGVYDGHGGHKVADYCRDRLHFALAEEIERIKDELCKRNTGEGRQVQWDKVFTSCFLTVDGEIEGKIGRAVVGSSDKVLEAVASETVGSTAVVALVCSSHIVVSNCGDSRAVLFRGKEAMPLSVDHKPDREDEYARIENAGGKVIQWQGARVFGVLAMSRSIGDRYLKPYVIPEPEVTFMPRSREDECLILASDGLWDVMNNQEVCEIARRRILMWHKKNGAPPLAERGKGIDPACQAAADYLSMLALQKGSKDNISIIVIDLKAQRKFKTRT
Assay: receptor-mediated PP2C (HAB1) inhibition in vitro assay
Assay type: biochemical
Conditions: Table VII; read-out: PP2C Dose Curves PYL6 (IC50)

Solved cases (3 shown):
N#Cc1ccc(CS(=O)(=O)NC(=O)C2(c3ccc(F)cc3)CCCCC2)cc1; > 50 µM
N#Cc1ccc(CS(=O)(=O)NC(=O)C2(c3ccc(F)cc3)CCCC2)cc1; > 50 µM
N#Cc1ccc(CS(=O)(=O)NC(=O)C2(c3ccc(F)cc3)CCC2)cc1; > 50 µM

Report IC50 under test system PYL6 (Arabidopsis thaliana, UniProt Q8S8E3) for CCC(CC)(C(=O)NS(=O)(=O)Cc1ccc([N+](=O)[O-])cc1)c1ccccc1 .
57.1 µM

Report IC50 under test system PYL6 (Arabidopsis thaliana, UniProt Q8S8E3) for Cc1ccccc1C1(C(=O)NS(=O)(=O)Cc2ccc(C#N)cc2)CC1 .
12.2 µM

Report IC50 under test system PYL6 (Arabidopsis thaliana, UniProt Q8S8E3) for CC(C)(C(=O)NS(=O)(=O)Cc1ccc(C#N)cc1)c1cccc(C#N)c1 .
12.6 µM

Report IC50 under test system PYL6 (Arabidopsis thaliana, UniProt Q8S8E3) for N#Cc1ccc(CS(=O)(=O)NC(=O)C2(c3ccc(F)cc3)CC2)cc1 .
34.7 µM

Report IC50 under test system PYL6 (Arabidopsis thaliana, UniProt Q8S8E3) for CC(C)(C(=O)NS(=O)(=O)Cc1ccc(C#N)cc1)c1ccccc1 .
> 50 µM

Report IC50 under test system PYL6 (Arabidopsis thaliana, UniProt Q8S8E3) for CC(C)(C(=O)NS(=O)(=O)Cc1ccc([N+](=O)[O-])cc1)c1ccccc1 .
45.5 µM

Report IC50 under test system PYL6 (Arabidopsis thaliana, UniProt Q8S8E3) for N#Cc1ccc(CS(=O)(=O)NC(=O)C2(c3cccc(F)c3)CC2)cc1 .
15.3 µM

* * *

Target: PYL4 (Arabidopsis thaliana)
Construct: 6X-His; made in house; host or cells: E. coli BL21[DE3]pLysS
Sequence (O80920 whole entry, one chain of several): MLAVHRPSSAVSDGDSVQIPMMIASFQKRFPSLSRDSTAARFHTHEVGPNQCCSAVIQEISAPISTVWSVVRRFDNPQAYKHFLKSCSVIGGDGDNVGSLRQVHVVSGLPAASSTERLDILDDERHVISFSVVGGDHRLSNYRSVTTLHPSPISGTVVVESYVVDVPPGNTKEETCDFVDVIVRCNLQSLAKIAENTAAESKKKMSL
Experiment: receptor-mediated PP2C (HAB1) inhibition in vitro assay
Type: biochemical
Settings: 50 uM of the test compound
endpoint: remaining activity at 50 µM

Solved cases (7 shown):
CC1CCC(C(=O)NS(=O)(=O)Cc2ccc(C#N)cc2)(c2ccc(F)cc2)CC1 (centres unmarked); 91.9%
N#Cc1ccc(CS(=O)(=O)NC(=O)C2(c3ccsc3)CCCCC2)cc1Br; 89.2%
CC1(C)CCC(C(=O)NS(=O)(=O)Cc2ccc(C#N)cc2)(c2ccc(F)cc2)CC1; 94%
O=C(NS(=O)(=O)Cc1ccc([N+](=O)[O-])cc1)C1(c2ccccc2)CCCCC1; 103%
CC(C)COC(=O)NS(=O)(=O)Cc1ccc(C#N)cc1; 95.5%
N#Cc1ccc(CS(=O)(=O)NC(=O)C(c2ccc(F)cc2)c2ccc(F)cc2)cc1; 90.1%
O=C(NS(=O)(=O)Cc1ccc(F)cc1)C1(c2ccccc2)CCCCC1; 105%

Could you now consider this next compound?
Report remaining activity at 50 µM under test system PYL4 (Arabidopsis thaliana) for N#Cc1ccc(CS(=O)(=O)NC(=O)C(C2CCCCC2)C2CCCCC2)cc1 .
98.2%
